MEASUREMENT_TARGET: T1, HLA-A*01:01 (human)
T1 construct: MHC class I monomer first loaded with a UV-sensitive peptide (not identified) that is cleaved by UV irradiation and exchanged for the tested peptide; captured on streptavidin plates, detected with anti-β2m; also called peptide-receptive MHC molecules
ASSAY_NOTES: UV-ligand exchange, anti-b2m ELISA

{"columns": ["BINDER", "peptide exchange yield"],
 "data": [
  ["KLAGTVFQY", "20 to 50%"],
  ["SLPEFGLTY", "20 to 50%"],
  ["TTQDELLVY", "50 to 75%"],
  ["NVDQNQNSY", "50 to 75%"],
  ["TSEVEGLAFVSY", "50 to 75%"],
  ["SLPEFGLTYY", "20 to 50%"],
  ["VLDFAPPGASAY", "> 75%"],
  ["LPAPGFLFY", "20 to 50%"]
]}
